- Tested on: Staphylococcus epidermidis ATCC 12228
- test-protocol: In vitro UV model: bacterial survival upon UV irradiation (96-well, MPN count)
- Assay type: cell-based
- conditions-used: sample 20% v/v; UV 15 SED (150 mJ/cm^2 UVA+UVB); after 4 h
quantity-kind: S. epidermidis relative protection by the UV filter(s) vs. vehicle control

{"molecule": "CCCCC(CC)COC(=O)c1ccccc1O (stereo not shown) [Ref. 1, Ethylhexyl Salicylate]", "assayed-system": "Staphylococcus epidermidis ATCC 12228", "result": "(+100) %"}
{"molecule": "CCCCC(CC)COc1ccc(-c2nc(-c3ccc(OC)cc3)nc(-c3ccc(OCC(CC)CCCC)cc3O)n2)c(O)c1 (stereo not shown)", "assayed-system": "Staphylococcus epidermidis ATCC 12228", "result": "(+100) %"}
{"molecule": "CCCCC(CC)COC(=O)C(C#N)=C(c1ccccc1)c1ccccc1 (stereo not shown)", "assayed-system": "Staphylococcus epidermidis ATCC 12228", "result": "(+59) %"}
{"molecule": "CCCCC(CC)COC(=O)c1ccc(Nc2nc(Nc3ccc(C(=O)OCC(CC)CCCC)cc3)nc(Nc3ccc(C(=O)OCC(CC)CCCC)cc3)n2)cc1 (stereo not shown)", "assayed-system": "Staphylococcus epidermidis ATCC 12228", "result": "(+59) %"}
